target_or_test_system: Kir3.1/Kir3.2 (Homo sapiens, UniProt P48051+P48549)
assay_method_text: Inhibition of GIRK1/2 (unknown origin)
Format: protein-complex assay
pIC50: −log10 of the molar value.
quantity: pIC50

O=C(Nc1cccc(C(F)(F)F)c1)Nc1cc(C2CCC2)nn1-c1ccccc1; 5.89
Cc1cccc(NC(=O)Nc2cc(CC3CC3)nn2-c2ccccc2)c1; 6.28
O=C(Nc1cccc(F)c1)Nc1cc(CC2CC2)nn1-c1ccccc1; 6.35
Cc1cccc(NC(=O)Nc2cc(C3CC3)nn2-c2ccccc2)c1; 6.07

P. O=C(Nc1ccc(F)c(F)c1)Nc1cc(CC2CC2)nn1-c1ccccc1
Q. O=C(Nc1cccc(Cl)c1)Nc1cc(C2CCC2)nn1-c1ccccc1
// compare measured pIC50 between P and Q ; output the lower one Reply with the label of the item you choose.
Q
(Q: 5.85, P: 6.19)

###

target_or_test_system: Kir3.1/Kir3.2 (Homo sapiens, UniProt P48051+P48549)
Sequence (P48549 whole entry): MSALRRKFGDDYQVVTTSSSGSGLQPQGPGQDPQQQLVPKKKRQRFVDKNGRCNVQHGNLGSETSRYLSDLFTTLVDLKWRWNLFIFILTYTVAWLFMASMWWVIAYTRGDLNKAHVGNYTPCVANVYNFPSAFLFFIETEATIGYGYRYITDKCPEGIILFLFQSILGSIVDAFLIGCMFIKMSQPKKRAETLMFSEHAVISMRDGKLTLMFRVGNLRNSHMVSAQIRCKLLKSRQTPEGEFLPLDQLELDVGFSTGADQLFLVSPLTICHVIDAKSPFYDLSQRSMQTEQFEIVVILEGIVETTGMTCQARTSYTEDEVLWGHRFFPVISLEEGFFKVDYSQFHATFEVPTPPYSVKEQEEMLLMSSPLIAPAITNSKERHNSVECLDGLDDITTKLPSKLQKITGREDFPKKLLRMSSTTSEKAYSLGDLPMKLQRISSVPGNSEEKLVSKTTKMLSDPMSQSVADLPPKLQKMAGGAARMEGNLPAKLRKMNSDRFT
Sequence (P48051 whole entry): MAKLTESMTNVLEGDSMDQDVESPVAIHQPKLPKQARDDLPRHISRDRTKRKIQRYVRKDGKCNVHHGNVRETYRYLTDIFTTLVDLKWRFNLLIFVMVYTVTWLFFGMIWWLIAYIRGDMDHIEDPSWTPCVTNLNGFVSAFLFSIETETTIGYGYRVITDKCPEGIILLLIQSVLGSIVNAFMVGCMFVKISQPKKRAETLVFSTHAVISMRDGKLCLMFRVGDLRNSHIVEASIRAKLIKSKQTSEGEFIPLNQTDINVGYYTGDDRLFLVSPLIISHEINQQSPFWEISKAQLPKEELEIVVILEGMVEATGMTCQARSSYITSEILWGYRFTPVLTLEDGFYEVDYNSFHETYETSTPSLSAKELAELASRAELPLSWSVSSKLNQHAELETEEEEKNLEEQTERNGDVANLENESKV
assay_method_text: Inhibition of GIRK1/2 (unknown origin)
Type: protein-complex assay
quantity: IC50 (µM)

Cc1cccc(NC(=O)Nc2cc(C(C)C)nn2-c2ccccc2)c1; 2.6

A. Cc1ccc(NC(=O)Nc2cc(C(C)C)nn2-c2ccccc2)cc1
B. O=C(Nc1cccc(Br)c1)Nc1cc(C2CCC2)nn1-c1ccccc1
C. O=C(Nc1cccc(C(F)(F)F)c1)Nc1cc(CC2CC2)nn1-c1ccccc1
D. O=C(Nc1cccc(F)c1)Nc1cc(C2CC2)nn1-c1ccccc1
// ascending sort on recorded IC50 Output spec: labels arranged per the requested ranking.
C, D, B, A

A. CC(C)c1cc(NC(=O)Nc2cccc(F)c2)n(-c2ccccc2)n1
B. O=C(Nc1ccc(F)c(F)c1)Nc1cc(C2CCCC2)nn1-c1ccccc1
C. O=C(Nc1cccc(Cl)c1)Nc1cc(CC2CC2)nn1-c1ccccc1
D. CSc1cccc(NC(=O)Nc2cc(C3CC3)nn2-c2ccccc2)c1
// ascending sort on recorded IC50 Output spec: labels arranged per the requested ranking.
C, D, A, B
